TESTED_TARGET: full-length human recombinant BTK (Homo sapiens (Human))
Sequence (Q06187 whole entry): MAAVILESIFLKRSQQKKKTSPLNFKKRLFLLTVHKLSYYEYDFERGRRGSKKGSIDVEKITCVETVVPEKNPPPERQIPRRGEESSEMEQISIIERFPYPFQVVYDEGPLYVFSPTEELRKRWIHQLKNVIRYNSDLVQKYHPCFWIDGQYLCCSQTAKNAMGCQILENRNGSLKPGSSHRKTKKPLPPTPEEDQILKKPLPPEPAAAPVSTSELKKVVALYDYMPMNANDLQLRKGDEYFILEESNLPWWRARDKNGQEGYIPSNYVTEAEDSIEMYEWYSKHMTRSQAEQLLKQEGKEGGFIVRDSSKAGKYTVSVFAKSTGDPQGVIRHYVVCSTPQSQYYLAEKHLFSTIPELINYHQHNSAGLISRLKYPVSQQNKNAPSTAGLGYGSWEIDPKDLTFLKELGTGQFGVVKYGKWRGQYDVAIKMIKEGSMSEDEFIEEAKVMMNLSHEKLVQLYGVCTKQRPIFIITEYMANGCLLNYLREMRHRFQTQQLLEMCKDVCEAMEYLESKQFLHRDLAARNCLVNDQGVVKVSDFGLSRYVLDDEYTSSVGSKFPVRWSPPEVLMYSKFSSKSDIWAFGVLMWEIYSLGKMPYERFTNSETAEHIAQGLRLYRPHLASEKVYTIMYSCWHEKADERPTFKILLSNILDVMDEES
METHOD_DESCRIPTION: Inhibition of Btk enzymatic activity (biochemical enzyme assay, Caliper)
RUN_PARAMETERS: 6.4 nM enzyme solution, 164 μM ATP solution, 30° C., 60 minutes
PROPERTY: IC50 (nM)

{"columns": ["SMILES_INPUT", "PROPERTY", "DISPLAY_UNIT", "RESULT_VALUE"],
 "data": [
  ["CC#CC(=O)N1CC(Oc2c(N)ncnc2-c2cc(F)cc(NC(=O)c3ccc(C4CC4)cc3F)c2C)C1", "IC50", "nM", 9],
  ["CC#CC(=O)N1C[C@@H](OC)C[C@H]1COc1c(N)ncnc1-c1cc(F)cc(NC(=O)c2ccc(C3CC3)cc2F)c1C", "IC50", "nM", 6],
  ["C=CC(=O)N1CCC[C@@H](COc2c(N)ncnc2-c2cc(F)cc(NC(=O)c3ccc(C4CC4)cc3F)c2C)C1", "IC50", "nM", 32],
  ["CC#CC(=O)N1C[C@H](OC)C[C@H]1COc1c(N)ncnc1-c1cc(F)cc(NC(=O)c2ccc(C3CC3)cc2F)c1C", "IC50", "nM", 3],
  ["C#CC(=O)N1CC(Oc2c(N)ncnc2-c2cc(F)cc(NC(=O)c3ccc(C4CC4)cc3F)c2C)C1", "IC50", "nM", 1]
]}

[A] C=CC(=O)N(C)CCOc1c(N)ncnc1-c1cc(F)cc(N2CCc3cc(C4CC4)ccc3C2=O)c1CO
[B] C=CC(=O)NC1(COc2c(N)ncnc2-c2cc(F)cc(NC(=O)c3ccc(C4CC4)cc3F)c2C)CC1
Hi team, can someone confirm which has the larger IC50: A or B ? Thanks. Please identify the chosen entry by its label. B

====

TESTED_TARGET: Btk (Rattus norvegicus)
METHOD_DESCRIPTION: Inhibition of Btk activity in blood (in vitro B cell activation assay, CD86, rat whole blood)
RUN_PARAMETERS: Lewis rat whole blood diluted to 50%, anti-rat IgM + rat IL-4, 24 hours, CD86 on CD45RA positive B cells
pIC50: −log10 of the molar value.
PROPERTY: pIC50

Solved entries (count: 3):
{"columns": ["MOLECULE", "RESULT_VALUE"],
 "data": [
  ["CC#CC(=O)N1CC(Oc2c(N)ncnc2-c2cc(F)cc(NC(=O)c3ccc(C4CC4)cc3F)c2C)C1 [Example 4]", 6.42],
  ["Cc1c(NC(=O)c2ccc(C3CC3)cc2F)cc(F)cc1-c1ncnc(N)c1OCCN(C)C(=O)C1CO1 (stereo not shown) [Example 11]", 6.49],
  ["CC#CC(=O)N1C[C@@H](OC)C[C@H]1COc1c(N)ncnc1-c1cc(F)cc(NC(=O)c2ccc(C3CC3)cc2F)c1C [Example 30]", 6.65]
]}

[A] C=CC(=O)N1CC[C@H]1COc1c(N)ncnc1-c1cc(F)cc(N2CCc3cc(C4CC4)ccc3C2=O)c1CO [Example 35]
[B] CC#CC(=O)N[C@@H](C)COc1c(N)ncnc1-c1cc(F)cc(NC(=O)c2ccc(C3CC3)cc2F)c1C [Example 18]
[C] C/C=C/C(=O)N1CC(Oc2c(N)ncnc2-c2cc(F)cc(NC(=O)c3ccc(C4CC4)cc3F)c2C)C1 [Example 2]
[D] C=CC(=O)N1CCC[C@H]1COc1c(N)ncnc1-c1cc(F)cc(N2CCc3cc(C4CC4)ccc3C2=O)c1CO [Example 24]
Sort ascending by pIC50. Returns: the labels arranged in the requested order. C, B, A, D
(C: 5.95, B: 6.38, A: 7.14, D: 7.49)

====

TESTED_TARGET: Btk (Rattus norvegicus, UniProt Q5S255)
Sequence (Q5S255 1-660): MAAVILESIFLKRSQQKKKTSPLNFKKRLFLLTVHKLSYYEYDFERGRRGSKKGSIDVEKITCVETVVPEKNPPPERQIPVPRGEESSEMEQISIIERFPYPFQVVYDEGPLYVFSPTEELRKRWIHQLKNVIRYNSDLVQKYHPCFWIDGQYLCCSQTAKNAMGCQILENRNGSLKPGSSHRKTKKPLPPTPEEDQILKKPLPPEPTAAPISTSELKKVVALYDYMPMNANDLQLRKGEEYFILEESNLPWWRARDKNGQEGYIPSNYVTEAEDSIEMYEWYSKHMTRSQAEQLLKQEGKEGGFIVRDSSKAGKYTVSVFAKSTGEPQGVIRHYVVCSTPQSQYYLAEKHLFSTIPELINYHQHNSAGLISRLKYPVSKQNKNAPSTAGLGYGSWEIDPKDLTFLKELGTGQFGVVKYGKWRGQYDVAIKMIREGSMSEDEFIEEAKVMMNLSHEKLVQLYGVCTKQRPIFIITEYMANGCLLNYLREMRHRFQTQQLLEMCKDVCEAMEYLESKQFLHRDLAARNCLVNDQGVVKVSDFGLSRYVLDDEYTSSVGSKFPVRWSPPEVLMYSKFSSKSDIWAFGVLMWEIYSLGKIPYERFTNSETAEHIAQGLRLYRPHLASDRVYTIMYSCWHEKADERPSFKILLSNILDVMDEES
METHOD_DESCRIPTION: Inhibition of Btk activity in blood (in vitro B cell activation assay, CD86, rat whole blood)
RUN_PARAMETERS: Lewis rat whole blood diluted to 50%, anti-rat IgM + rat IL-4, 24 hours, CD86 on CD45RA positive B cells
pIC50: −log10 of the molar value.
PROPERTY: pIC50

Solved entries (count: 3):
{"columns": ["SMILES_INPUT", "pIC50"],
 "data": [
  ["C=CC(=O)N1CCC[C@@H](COc2c(N)ncnc2-c2cc(F)cc(NC(=O)c3ccc(C4CC4)cc3F)c2C)C1", 6.01],
  ["C#CC(=O)N1CC(Oc2c(N)ncnc2-c2cc(F)cc(NC(=O)c3ccc(C4CC4)cc3F)c2C)C1", 6.91],
  ["COC/C=C/C(=O)N(C)CCOc1c(N)ncnc1-c1cc(F)cc(NC(=O)c2ccc(C3CC3)cc2F)c1C", 6.62]
]}

[1] C=CC(=O)N1C[C@H](F)C[C@H]1COc1c(N)ncnc1-c1cc(F)cc(NC(=O)c2ccc(C3CC3)cc2F)c1C
[2] CC#CC(=O)N(C)[C@@H](C)COc1c(N)ncnc1-c1cc(F)cc(NC(=O)c2ccc(C3CC3)cc2F)c1C
Which has the smaller recorded pIC50, 1 or 2 ? Please identify the chosen entry by its label. 2

[P] C=CC(=O)N1C[C@@H](OC)C[C@H]1COc1c(N)ncnc1-c1cc(F)cc(NC(=O)c2ccc(C3CC3)cc2F)c1C
[Q] C=CC(=O)N1C[C@H](OC)C[C@H]1COc1c(N)ncnc1-c1cc(F)cc(NC(=O)c2ccc(C3CC3)cc2F)c1C
Which has the smaller recorded pIC50, P or Q ? Please identify the chosen entry by its label. P
(P: 6.87, Q: 7.29)

====

TESTED_TARGET: full-length human recombinant BTK (Homo sapiens (Human))
METHOD_DESCRIPTION: Inhibition of Btk enzymatic activity (biochemical enzyme assay, Caliper)
RUN_PARAMETERS: 6.4 nM enzyme solution, 164 μM ATP solution, 30° C., 60 minutes
Experimental: The inhibitory activity of the present compounds against Btk was assessed in a biochemical enzyme assay. […] The assay plates were prepared by addition of 50 nl per well of compound solution in 90% DMSO. […] Kinase reactions were analyzed on a Caliper LC3000 workstation by separating phosphorylated and unphosphorylated peptides and kinase activities were calculated from the amounts of newly formed phospho-peptide.
PROPERTY: IC50 (nM)

Solved entries (count: 4):
{"columns": ["COMPOUND", "DISPLAY_UNIT", "IC50"],
 "data": [
  ["CC#CC(=O)N1C[C@H](F)C[C@H]1COc1c(N)ncnc1-c1cc(F)cc(NC(=O)c2ccc(C3CC3)cc2F)c1C", "nM", 4],
  ["CC#CC(=O)N1CCC[C@H]1COc1c(N)ncnc1-c1cc(F)cc(NC(=O)c2ccc(C3CC3)cc2F)c1C", "nM", 1],
  ["CC#CC(=O)N(C)[C@@H](C)COc1c(N)ncnc1-c1cc(F)cc(NC(=O)c2ccc(C3CC3)cc2F)c1C", "nM", 5],
  ["C=CC(=O)N1CC[C@H]1COc1c(N)ncnc1-c1cc(F)cc(N2CCc3cc(C4CC4)ccc3C2=O)c1CO", "nM", 2]
]}

[A] Cc1c(NC(=O)c2ccc(C3CC3)cc2F)cc(F)cc1-c1ncnc(N)c1OCCN(C)C(=O)C1CO1 (stereo not drawn)
[B] C=CC(=O)N1C[C@@H](C#N)C[C@H]1COc1c(N)ncnc1-c1cc(F)cc(NC(=O)c2ccc(C3CC3)cc2F)c1C
Which has the smaller recorded IC50, A or B ? Please identify the chosen entry by its label. B
(B: 2 nM, A: 10 nM)

====

TESTED_TARGET: full-length human recombinant BTK (Homo sapiens (Human))
METHOD_DESCRIPTION: Inhibition of Btk enzymatic activity (biochemical enzyme assay, Caliper)
RUN_PARAMETERS: 6.4 nM enzyme solution, 164 μM ATP solution, 30° C., 60 minutes
PROPERTY: IC50 (nM)

{"columns": ["SMILES_INPUT", "RESULT_VALUE"],
 "data": [
  ["C=CC(=O)N(C)[C@@H](C)COc1c(N)ncnc1-c1cc(F)cc(NC(=O)c2ccc(C3CC3)cc2F)c1C", 16]
]}

[A] C=CC(=O)N1C[C@H](OC)C[C@H]1COc1c(N)ncnc1-c1cc(F)cc(N2CCc3cc(C4CC4)ccc3C2=O)c1CO
[B] C=CC(=O)N1CCC[C@H]1COc1c(N)ncnc1-c1cc(F)cc(N2CCc3cc(C4CC4)ccc3C2=O)c1CO
[C] C=CC(=O)N1C[C@H](F)C[C@H]1COc1c(N)ncnc1-c1cc(F)cc(NC(=O)c2ccc(C3CC3)cc2F)c1C
Sort ascending by IC50. Returns: the labels arranged in the requested order. B, A, C

====

TESTED_TARGET: full-length human recombinant BTK (Homo sapiens (Human))
METHOD_DESCRIPTION: Inhibition of Btk enzymatic activity (biochemical enzyme assay, Caliper)
RUN_PARAMETERS: 6.4 nM enzyme solution, 164 μM ATP solution, 30° C., 60 minutes
PROPERTY: IC50 (nM)

{"columns": ["MOLECULE", "PROPERTY", "RESULT_VALUE"],
 "data": [
  ["COC/C=C/C(=O)N(C)CCOc1c(N)ncnc1-c1cc(F)cc(NC(=O)c2ccc(C3CC3)cc2F)c1C [Example 9]", "IC50", 10],
  ["C=CC(=O)N[C@@H](C)COc1c(N)ncnc1-c1cc(F)cc(NC(=O)c2ccc(C3CC3)cc2F)c1C [Example 17]", "IC50", 5]
]}

[A] C=CC(=O)N1C[C@@H](OC)C[C@H]1COc1c(N)ncnc1-c1cc(F)cc(NC(=O)c2ccc(C3CC3)cc2F)c1C [Example 29]
[B] C=CC(=O)N(C)CCOc1c(N)ncnc1-c1cccc(-n2ccc3cc(C4CC4)cc(F)c3c2=O)c1 [Example 12]
Hi team, can someone confirm which has the larger IC50: A or B ? Thanks. Please identify the chosen entry by its label. B
(B: 12 nM, A: 4 nM)
